TARGET DESC: Glucose transporter (Leishmania mexicana) (UniProt O61059)
METHOD DESCRIPTION: ST_JUDE_LEISH: Cytotoxicity at 2uM final concentration against transgenic Leishmania Mexicana promastigotes LmGT2 that are glucose transport deficient and complemented with the L. Mexicana glucose transporter 2. Activity is measured by DNA content using SYBR green in vitro
Type: functional
Form field: inhibition (one value per entry).
OBSERVATION TYPE: inhibition (%)

Clc1ccc(-c2[nH]c3ccccc3c2CN2CCC(N3CCCCC3)CC2)cc1 :: 15.2
CCCCCCP(=O)(COc1ccc(CCN(CC(O)COc2cccc3[nH]c(C(N)=O)cc23)CC(O)COc2cccc3[nH]c(C(N)=O)cc23)cc1)OCCCC (centres undefined) :: 6.45
CSc1ccc2nccc(Nc3ccc(Oc4ccccc4)cc3)c2c1 :: 1.56
COc1ccc2ncc(F)c(CCN3C[C@H](CNCc4cc(C#N)c5c(c4)OCCO5)[C@H](O)C3)c2n1 :: 1.91

====

TARGET DESC: Solute carrier family 2, facilitated glucose transporter member 1 (Homo sapiens)
METHOD DESCRIPTION: ST_JUDE_LEISH: Cytotoxicity at 2uM final concentration against transgenic Leishmania Mexicana promastigotes LmGLUT1 that are glucose transport deficient and complemented with the human glucose transporter GLUT1. Activity is measured by DNA content using SYBR green in vitro
Assay type: functional
OBSERVATION TYPE: inhibition (%)

COc1ccc(Cl)cc1-c1nc(C(=O)NCCN2CCCCC2)c(C)s1 :: 1.59
CSc1ccc(NC(=O)Nc2cc(C)nc3ccccc23)cc1 :: 10.3
O=C(NC1CCN(Cc2ccccc2)CC1)c1csc2nc(-c3ccc(Cl)cc3)cn12 :: 4.09
COc1ccc(C2c3ccccc3-c3nc(N)nc(N)c3C2C)cc1 (stereo not given) :: 3.13
CCOc1cc2c(cc1OCC)C(c1cc(OC)c(O)cc1Cl)NCC2 (stereo not given) :: 2.01
CCc1ccc(NC(=O)c2ccc(CN3CCCN(Cc4ccc(C)s4)CC3)cc2)cc1 :: 3.79
OC(CNc1ccnc(Nc2cccc(OCCCN3CCOCC3)c2)n1)c1ccccc1 (stereo not given) :: 0.76
CC1(C)N=C(N)N=C(N)N1OCc1cccc(C#N)c1 :: 2.81
NC(=O)C1CCN(Cc2ccc(-c3ccc(-c4nc5cc(C(F)(F)F)ccc5[nH]4)cc3)cc2)CC1 :: 4.65
CCCC(C)Nc1nc(C)cc(N[C@@H](CC(C)C)C(=O)NCc2cccc(F)c2)n1 (stereo not given in full) :: 4.43

====

TARGET DESC: Solute carrier family 2, facilitated glucose transporter member 1 (Homo sapiens) (UniProt P11166)
Sequence (P11166 whole entry): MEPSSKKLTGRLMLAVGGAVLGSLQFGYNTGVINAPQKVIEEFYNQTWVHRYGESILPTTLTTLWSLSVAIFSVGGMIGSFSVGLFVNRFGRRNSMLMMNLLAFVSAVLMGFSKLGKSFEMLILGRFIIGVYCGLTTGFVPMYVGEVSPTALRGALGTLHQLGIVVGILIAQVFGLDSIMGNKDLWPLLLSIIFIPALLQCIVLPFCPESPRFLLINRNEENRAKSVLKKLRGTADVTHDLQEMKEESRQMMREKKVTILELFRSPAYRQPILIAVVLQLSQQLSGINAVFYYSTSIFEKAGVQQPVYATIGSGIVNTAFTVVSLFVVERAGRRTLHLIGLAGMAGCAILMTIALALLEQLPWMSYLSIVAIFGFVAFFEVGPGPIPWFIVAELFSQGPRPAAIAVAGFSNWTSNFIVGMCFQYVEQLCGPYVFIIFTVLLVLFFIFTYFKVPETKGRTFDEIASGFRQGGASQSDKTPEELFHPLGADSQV
METHOD DESCRIPTION: ST_JUDE_LEISH: Cytotoxicity at 2uM final concentration against transgenic Leishmania Mexicana promastigotes LmGLUT1 that are glucose transport deficient and complemented with the human glucose transporter GLUT1. Activity is measured by DNA content using SYBR green in vitro
Type: functional
Form field: inhibition (one value per entry).
OBSERVATION TYPE: inhibition (%)

CC1CCC2(CC1)N=C(N)N=C(N)N2OCc1cc2ccccc2c2ccccc12 (stereo unspecified) :: 3.83
Cc1nc2ccc3ccc(CNc4ccc(C#N)cc4)cc3c2c(=O)[nH]1 :: 50.2
COc1cc(OC)c2c(C)cc(NCCCN3CCOCC3)nc2c1 :: 1.92
Cc1cccc(C)c1CNc1ccnc2ccccc12 :: 1.11
CC1(C)CCC(=Cc2ccc(Cl)cc2)CC1(O)Cn1ccnc1 (stereo unspecified) :: 11.7
Cc1cc(=O)c(-c2ccc(OCc3ccc(OC(F)(F)F)cc3)cc2)c(C)[nH]1 :: 7.02
O=C(Nc1cccc(CN2CCCN(Cc3cccc(O)c3)CC2)c1)c1cc2ccccc2s1 :: -0.14
O=C(N[C@@H](Cc1ccccc1)[C@H](O)CNCCC(F)(F)F)c1cccc(CCC2CC2)c1 :: 0.82
CCN(CCCN1CCCCC1)c1cc(C)nc(Nc2cc(Cl)ccc2C)n1 :: 1.18
O=C(NC1CC1)c1ccc(N2CCC(COc3cccc(F)c3)CC2)nc1 :: 5.26
c1ccc2ncc(CNCCCCCCCCNCc3cnc4ccccc4c3)cc2c1 :: -0.67

====

TARGET DESC: Hexose transporter 1 (Plasmodium falciparum) (UniProt O97467)
METHOD DESCRIPTION: ST_JUDE_LEISH: Cytotoxicity at 2uM final concentration against transgenic Leishmania Mexicana promastigotes LmPfHT that are glucose transport deficient and complemented with the Plasmodium falciparum hexose transporter. Activity is measured by DNA content using SYBR green in vitro
Format: functional
OBSERVATION TYPE: inhibition (%)

CCCC(C)NC(=O)C(N)Cc1cccc(I)c1 (configuration not stated) :: -1
CN(C)CCNCc1ccc(-c2ccc(-c3nc4cc(F)ccc4[nH]3)cc2)cc1 :: 7.88
CCc1c[nH]c2c(N(c3ccccc3)S(C)(=O)=O)cc(C(=O)N[C@@H](Cc3ccccc3)[C@H](O)CNC(C)(C)CCCC(C)C)cc12 :: 1.65
COc1cc(CN2CCC(NC(=O)[C@H](Cc3ccccc3)NC(=O)Nc3ccc(Oc4ccccc4)cc3)C2)ccc1O (some centres not stated) :: 1.77
O=C(Nc1cccc(-c2nc3ccccc3[nH]2)c1)c1cccc(NC(=O)c2ccco2)c1 :: 2.09
CS(=O)(=O)N1CC2(CCN(CCC(NC(=O)Nc3ccccc3)c3ccc(Cl)c(Cl)c3)CC2)c2ccccc21 (configuration not stated) :: 3.17
CCCc1cc(Cc2cnc(N)nc2N)cc(CCC)c1OCCCCC(=O)OCC :: 2.3
O=[N+]([O-])c1cccc(C(Nc2ccccn2)c2ccc3cccnc3c2O)c1 (configuration not stated) :: 5.86
COc1ccc2nc(-c3ccc(C(=O)NCCCN4CCN(c5cc(Cl)ccc5OC)CC4)cc3OC)[nH]c2c1 :: 1.93
COc1cc2c(cc1S(=O)(=O)c1ccc(NC(=O)c3ccc4ccccc4c3)cc1)CCN(C)CC2 :: 0.19
COc1ccccc1CCNc1nc(C)cc(N[C@@H](CC(C)C)C(=O)NCc2cccc(F)c2)n1 :: 8.52
COc1ccc(NS(=O)(=O)c2cccc(C(=O)Nc3ccc(C(F)(F)F)cc3)c2)cc1N1CCN(CC(C)C)CC1 :: 4.29
CN(C)CC(=O)NCC(NCCCNc1cc(=O)c2ccccc2[nH]1)c1cc(Br)cc(Br)c1 (configuration not stated) :: 5.13
CC(C)CCNC(=O)C1Cc2c([nH]c3cc(Cl)ccc23)C2(CCN(CCc3ccccc3)CC2)N1 (configuration not stated) :: 2.24
O=C1OC2(CN1CC1CCN(Cc3ccc(O)cc3Cl)C1)c1ccccc1-c1ccccc12 (configuration not stated) :: -2.55
COc1ccc(NC(=O)[C@H](CC(C)C)Nc2cc(C)nc(NCc3ccccc3C)n2)cc1 :: 2.18
COC(=O)C(C)NCC(=O)c1ccccc1 (configuration not stated) :: 6.12
Cc1ccccc1C1CCN(C2CCC(NC(=O)/C=C/c3cc(C(F)(F)F)ccc3F)CC2)CC1 (configuration not stated) :: 2.98
CCCCCCn1c(Sc2ccc(C#N)c([N+](=O)[O-])c2)nnc1-c1ccc(OC)cc1 :: 5.13
Cn1cc(CCNc2ccnc(NCCc3coc4ccccc34)n2)c2ccccc21 :: 6.89
CN(Cc1ccccc1)C1CCN(c2cc(NC(=O)c3cccc(F)c3)ccn2)CC1 :: 8.73
CN(Cc1ccccc1)C(=O)CCNS(=O)(=O)c1cc(Br)cnc1N :: 3.87
CN(C)Cc1cccc(-c2cnc(N)c(-c3nc4cc(S(C)(=O)=O)ccc4[nH]3)c2)c1 :: 5.29
COc1ccc(Nc2nc(NC3CCCC3)cc(-c3ccc(OC)cc3)n2)cc1 :: 0.56
O=c1cc(NCCCNC2CCCc3c2ccc2ccccc32)[nH]c2ccccc12 (configuration not stated) :: 4.85
CCC(C)OC(=O)C1=C(C)NC2=C(C(=O)CC(c3ccc(OC)c(OC)c3)C2)C1c1ccc(C)o1 (configuration not stated) :: 8.1
O=C(Nc1ccc(Oc2ccccc2)cc1)N[C@H]1CCN(Cc2ccc(OCCCN3CCCCC3)cc2)C1 :: -1.17
Oc1ccc(CCNc2nc(NCc3ccccc3-c3ccc(C(F)(F)F)cc3)nc(NC3CCNCC3)n2)cc1 :: 0.48
CC(C)(C)OC(=O)NCc1ccc(Nc2nnc(-c3cccc(OCC(=O)NCc4cc(C(F)(F)F)cc(C(F)(F)F)c4)c3)o2)cc1 :: 1.63
O=S(=O)(c1csc2ccccc12)N(CCC(O)(C(F)(F)F)C(F)(F)F)Cc1cccc(O)c1 :: -2.19
COc1ccc2nc(C)cc(Nc3ccc(Oc4ccc5ccccc5c4)c(Cl)c3)c2c1 :: 7.63
COc1cc([N+](=O)[O-])ccc1NC(=O)c1cc(Cl)ccc1O :: 6.83
N#Cc1ccc(C(=O)NC2CCN(CCCCCNC(=O)/C=C/c3ccc(Cl)c(Cl)c3)CC2)cc1 :: 1.46
OC(c1ccccc1)C1CN(CCC2CC3CCC2C3)CCC1(O)c1ccccc1 (configuration not stated) :: -3.69
COC(=O)c1cccc(CNCc2cccc(-c3ccc(-c4nc5cccc(C)c5[nH]4)s3)c2)c1 :: 0.6
O=C(COc1ccccc1)N(Cc1ccc(-c2ccc(CNC3Cc4ccccc4C3)cc2)cc1)C1CCNCC1 :: 2.48
CCc1ccc(-n2c(=O)c3cccnc3n2CC(=O)NC2CCCC2)cc1 :: -0.35
